# protocolText: chemical genetic growth profiling, strain panel (AID 1159580);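 note: tested at 20 µM; growth read once vehicle control cultures reached saturation at 30 °C; lower values mean less growth of the strain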
# testSettings: S. cerevisiae deletion strains, growth OD, locus YMR205C, strain PFK2
Among all 5,500 compounds or so, about 2,000 (36%) were called active. About 18% were inconclusive and are not listed. Cut-off read from the data, not from the text of the source: active = normalized growth mostly below about 0.91 (no sharp cut-off); inconclusive = no clear call, values can overlap the other calls; inactive = mostly above about 0.92. The list shows a part of the results.
Log the outcome using a class from active, inactive

The following molecules have reported results that may help.
1) C[C@]12CCC(=O)C=C1CCC1C2[C@@H](O)C[C@@]2(C)C1CC[C@]2(O)C(=O)CO (stereo partly specified)    inactive
2) COC(=O)C[C@H]1C(C)(C)C(=O)[C@@H]2CC3C4=CC(=O)O[C@@H](c5ccoc5)[C@]4(C)CCC3[C@@]1(C)C2=O (stereo partly specified)    inactive
3) CCOc1ccc2nc3cc(N)ccc3c(N)c2c1    active

Task item: Give the logged outcome of this assay for the following molecule: `N=C(N)SCCN`
Reply: inactive

Task item: Give the logged outcome of this assay for the following molecule: CO[C@@]12[C@@H]3NC3CN1C1=C(C(=O)C(N)=C(C)C1=O)[C@@H]2COC(N)=O (stereo partly specified)
Reply: inactive

Task item: Give the logged outcome of this assay for the following molecule: `COc1ccc2c(c1)c(CC(=O)O)c(C)n2C(=O)c1ccc(Cl)cc1`
Reply: inactive

Task item: Give the logged outcome of this assay for the following molecule: Nc1c2c(nc3ccccc13)CCCC2O (stereo unspecified)
Reply: inactive

Task item: Give the logged outcome of this assay for the following molecule: CC(C)=CCCC1(C)C=Cc2c(O)c3c(c(CC=C(C)C)c2O1)OC12C(=CCCC1C(C)(C)O[C@@]2(C/C=C(\C)C(=O)O)C(=O)O)C3=O (stereo partly specified)
Reply: active

Task item: Give the logged outcome of this assay for the following molecule: CC(C)CC(N(C)C)C1(c2ccc(Cl)cc2)CCC1 (stereo unspecified)
Reply: inactive

Task item: Give the logged outcome of this assay for the following molecule: `C[C@@H]1CC[C@H]2[C@@H](C)C(=O)O[C@@H]3O[C@@]4(C)CC[C@@H]1[C@]32OO4`
Reply: active

Task item: Give the logged outcome of this assay for the following molecule: CCN1C[C@]2(OC(=O)c3ccccc3NC(C)=O)CCC(OC)[C@]34C1[C@H](CC23)[C@@]1(O)CC(OC)[C@H]2CC4C1(O)[C@H]2OC (stereo partly specified)
Reply: inactive

Task item: Give the logged outcome of this assay for the following molecule: COC(=O)Nc1nc2ccc(S(=O)c3ccccc3)cc2[nH]1 (stereo unspecified)
Reply: inactive

Task item: Give the logged outcome of this assay for the following molecule: CC1(C)CC[C@]2(C)CC[C@]3(C)C(=CCC4[C@@]5(C)CC[C@H](O)C(C)(C)C5CC[C@]43C)C2C1 (stereo partly specified)
Reply: inactive

Task item: Give the logged outcome of this assay for the following molecule: COc1cccc2c1C(=O)c1c(O)c3c(c(O)c1C2=O)C[C@@](O)(C(=O)CO)C[C@@H]3OC1C[C@H](N)[C@H](O)[C@H](C)O1 (stereo partly specified)
Reply: active

Task item: Give the logged outcome of this assay for the following molecule: C#C[C@]1(O)CCC2C3CCC4=C(CCC(=O)C4)C3CC[C@@]21C (stereo partly specified)
Reply: inactive

Task item: Give the logged outcome of this assay for the following molecule: Nc1ccccc1C(=O)CC(N)C(=O)O (stereo unspecified)
Reply: inactive

Task item: Give the logged outcome of this assay for the following molecule: `Cc1cn([C@H]2C[C@H](N=[N+]=[N-])[C@@H](CO)O2)c(=O)[nH]c1=O`
Reply: inactive

Task item: Give the logged outcome of this assay for the following molecule: `CNC(=O)O/N=C\C(C)(C)SC`
Reply: inactive

Task item: Give the logged outcome of this assay for the following molecule: `COC1=C[C@@H]2[C@@H]3Cc4ccc(OC)c(O)c4[C@]2(CCN3C)CC1=O`
Reply: inactive

Task item: Give the logged outcome of this assay for the following molecule: `COc1ccc2c3c([nH]c2c1)C(C)=NCC3`
Reply: inactive

Task item: Give the logged outcome of this assay for the following molecule: C[C@@H]1CC[C@H]2[C@@H](C)C(O)O[C@@H]3O[C@@]4(C)CC[C@@H]1[C@]32OO4 (stereo partly specified)
Reply: active

Task item: Give the logged outcome of this assay for the following molecule: `NC12CC3CC(CC(C3)C1)C2`
Reply: inactive

Task item: Give the logged outcome of this assay for the following molecule: CC(=O)/C=C\[C@@H]1[C@@]2(C)CCCC(C)(C)C2CC[C@@]1(C)O (stereo partly specified)
Reply: inactive

Task item: Give the logged outcome of this assay for the following molecule: `NNc1nncc2ccccc12`
Reply: inactive

Task item: Give the logged outcome of this assay for the following molecule: `O=C(CNC(=O)c1ccc(Cl)cc1)NO`
Reply: inactive

Task item: Give the logged outcome of this assay for the following molecule: N#CC(O[C@@H]1O[C@H](CO[C@@H]2O[C@H](CO)[C@@H](O)[C@H](O)[C@H]2O)[C@@H](O)[C@H](O)[C@H]1O)c1ccccc1 (stereo partly specified)
Reply: inactive
